Assay metric: melting point

Request: So what does the record say about melting point for CC(C)(CF)C(=O)C(Oc1cccc(F)n1)n1cncn1 (stereo unspecified) ?
Result: 116 °C

# batch: return melting point for each of the 6 molecules below
1. O=C(O)c1nc(-c2ccc(Cl)cc2Cl)c(-c2ccc(Br)cc2)s1
2. CNC(=S)NCCN1CCC(Nc2nc3cncnc3n2Cc2ccc(F)cc2)CC1
3. CS(=O)(=O)c1ccc(-c2cc(C(F)(F)F)nn2-c2ccc(F)cc2)cc1F
4. O=C1Nc2ccc(-c3ccc(Cl)cc3)cc2C1=NO
5. COc1cccc(C(=O)P2(=O)Oc3ccccc3-c3ccccc32)c1 (stereo unspecified)
6. COC(=O)/C=C/c1ccc(OC)cc1N

Result:
1. 94 to 95 °C
2. 206 °C
3. 228 to 229 °C
4. 236 to 237 °C
5. 116 to 118 °C
6. 149 °C

# batch: return melting point for each of the 4 molecules below
1. COC(=O)c1ccc(OC)c(NC(=N)c2ccc(F)cc2Cl)c1
2. CNC(=O)N(N)CC(C)O (stereo unspecified)
3. Cc1ccc2cccc(N(Cc3c(Cl)ccc([N+](=O)[O-])c3Cl)C(=O)OC(C)(C)C)c2n1
4. O=C1NCC(Cc2ccccc2Cc2ccccc2)O1 (stereo unspecified)

Result:
1: 120 °C; 2: 99 to 101 °C; 3: 130 to 131 °C; 4: 105 to 106 °C

---

Assay metric: melting point

Request: So what does the record say about melting point for `COc1ccc(-c2[nH]nc3c2C(=O)c2c(NC(=O)Nc4ccncc4)cccc2-3)cc1` ?
Result: > 300 °C

# batch: return melting point for each of the 8 compounds below
1. OC(CCCl)COc1cccc(C(F)(F)F)c1 (configuration not stated)
2. COc1ccc2nc(C3(OC)C=CC(=NS(=O)(=O)c4ccc(C)cc4)C=C3)sc2c1 (configuration not stated)
3. O=C1CCc2cc(C3=NNC(=O)C4CCC34)ccc2N1 (configuration not stated)
4. c1ccc2c(c1)C[C@H]1CSC(=Nc3cccc4ncccc34)N1C2
5. CCOC(=O)CNC1=C(C(=O)c2cccnc2Cl)CCC1
6. CC(=CCc1c(C)nc(N)nc1N)c1cc(Cl)ccc1Cl
7. CCOC(=O)C1CCc2c([nH]c3ccc(N)cc23)C1 (configuration not stated)
8. CCCCCCCCc1cc2c(s1)NC(=O)CN=C2c1ccccc1OC

Result:
1. 50 to 52 °C
2. 166 to 168 °C
3. 349 to 353 °C
4. 194 °C
5. 114 to 118 °C
6. 172 to 174 °C
7. 123 to 124 °C
8. 128 to 130 °C

# batch: return melting point for each of the 3 compounds below
1. O=[N+]([O-])c1cc(Br)cc(OCCF)c1
2. Cc1cccc2nc3c(c(C)nn3-c3ccccn3)c(Cl)c12
3. O=C(Nc1ccc2ccc(Cl)nc2n1)C1=CSCS1

Result:
1: 59 to 61 °C; 2: 167 to 169 °C; 3: 235 °C

# batch: return melting point for each of the 6 compounds below
1. COC(=O)c1ccc(OCC(=O)NN=C2C(=O)Nc3ccc(I)cc32)cc1
2. O=C(O)C1CCc2ccccc2N1C(=O)CCS (configuration not stated)
3. O=c1oc(OCc2ccccc2)c(Cl)c2ccccc12
4. CCCCCC(=O)c1cc(Cl)ccc1N(CC(=O)OC)S(=O)(=O)c1ccc(C)cc1
5. CCCN1C(=O)c2cnc(-c3ccccc3)nc2N(C(=O)CCl)c2ccccc21
6. CC(C)Oc1ccc(COc2ccc(CC(=O)O)cc2Cl)cc1

Result:
288 °C
130 to 132 °C
92 °C
68 to 70 °C
139 to 140 °C
115 to 116 °C

# batch: return melting point for each of the 4 compounds below
1. CCCC(=O)Oc1ccc(OC(=O)CCC)c(C#N)c1C#N
2. Cc1c2c(nn1Cc1ccccc1)c(N)nc1ccccc12
3. CCc1ccc(CCC(=O)O)c(C(=O)O)c1
4. Oc1ccc2c(c1)OCC(c1ccc(F)cc1)C2c1ccc(OCCCN2CCCCC2)cc1 (configuration not stated)

Result:
["86 to 87 °C", "> 250 °C", "174 °C", "78 to 84 °C"]
